Experiment: cells
Type: functional
Active and inactive are the calls of the source.
endpoint: IC50

In: So what's the measured IC50 for this one? `COc1cnn(C2CCCCC2)c(=O)c1O`
Out: 33.5 µM (active)

In: Quick one: IC50 of `O=C(Nc1nnc(C2=COCCO2)o1)c1ccc(Cc2ccccc2)cc1` ?
Out: 10.2 µM (active)

In: What does the record list as IC50 for `Cc1cc2ncn(/N=C/c3ccc([N+](=O)[O-])s3)c2cc1C` ?
Out: 1.25 µM (active)

In: Would you mind telling me what IC50 value was observed for `O=[N+]([O-])c1ccc(CN2CCN(c3ccc(Cl)cc3)CC2)o1` ?
Out: < 0.1 µM (active)

In: // query IC50 value for entry `O=C1NC(=O)C(=Cc2ccc(-c3ccc(Cl)cc3)o2)C(=O)N1`
Out: > 50 µM (active)

----------
Test: Trypanosoma cruzi growth suppression in host cells – NIH3T3 host cells, beta-gal luminescence, confirmation (AID 2044);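 further: intracellular parasites grown in NIH/3T3 mouse fibroblasts as host cells; luminescent beta-galactosidase reporter signal from transgenic T. cruzi replicating inside host cells; inhibitors lower the luminescence signal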
Format: functional, cell-based
Calls of active or inactive are those of the source.
endpoint: EC50

In: For the compound shown here, `COc1ccc(C(=O)C[n+]2nc(CNc3ccc(Br)cc3)n3c2CCCCC3)cc1` , give the reported EC50.
Out: 898 nM (active)

In: EC50 for CCC(C)NS(=O)(=O)c1ccc(S(=O)(=O)N(CCc2ccc(OC)c(OC)c2)Cc2cccs2)cc1 (stereo unspecified) ?
Out: 1720 nM (active)

In: What value of EC50 has been recorded for this entry: `Cc1cc(C)cc(NC(=O)CSc2nc3c(oc4ccccc43)c(=O)n2-c2ccccc2)c1`
Out: 1260 nM (active)

In: Look at this compound and give its reported EC50. COc1ccc(OC)c(C(c2nnnn2C(C)(C)C)N2CCc3ccccc3C2)c1 (stereo unspecified)
Out: 2770 nM (active)

In: If you can, please state the reported EC50 value of `Cc1nn(S(=O)(=O)c2ccc([N+](=O)[O-])cc2)c(C)c1Sc1ccccc1` .
Out: 1160 nM (active)

In: Given the entry Cc1ccc2nc(O)c(C(c3nnnn3C(C)(C)C)N(Cc3ccco3)CC3CCCO3)cc2c1 (stereo unspecified) , report its measured EC50.
Out: 3140 nM (active)

----------
Target: Microphthalmia-associated transcription factor (Homo sapiens, UniProt O75030)
Sequence (O75030 whole entry): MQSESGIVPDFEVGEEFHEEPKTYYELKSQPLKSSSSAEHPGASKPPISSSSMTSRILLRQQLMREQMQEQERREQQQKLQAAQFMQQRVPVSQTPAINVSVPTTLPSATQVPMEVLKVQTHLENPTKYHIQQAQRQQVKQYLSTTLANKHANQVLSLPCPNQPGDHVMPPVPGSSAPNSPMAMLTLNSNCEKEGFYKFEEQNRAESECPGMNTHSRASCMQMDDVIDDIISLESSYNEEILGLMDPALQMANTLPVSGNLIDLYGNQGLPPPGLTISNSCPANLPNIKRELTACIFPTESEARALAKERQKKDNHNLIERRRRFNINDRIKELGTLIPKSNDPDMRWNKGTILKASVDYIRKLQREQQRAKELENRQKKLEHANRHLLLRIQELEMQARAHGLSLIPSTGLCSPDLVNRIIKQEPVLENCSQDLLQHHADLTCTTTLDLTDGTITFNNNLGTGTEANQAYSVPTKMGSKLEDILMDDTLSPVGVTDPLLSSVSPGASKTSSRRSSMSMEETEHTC
Experiment: reducers of TRPM1 reporter luminescence, concentration series – cell-based, SK-MEL-5, cherry-picked, set 3, MITF inhibitor project, dose response (AID 493073);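 further: SK-MEL-5 melanoma cells with luciferase driven by the MITF target TRPM1 promoter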
Assay type: functional
The source made the active and inactive calls.
endpoint: AC50

In: I am curious: what AC50 value has been reported for `CCOC(=O)N1CCN(C(=O)c2ccc(Cn3c(=S)[nH]c4ccc(Br)cc4c3=O)cc2)CC1` ?
Out: 3.52 µM (active)

In: May I ask what AC50 has been recorded for `O=C(Nc1ccc2nc3n(c(=O)c2c1)CCCCC3)c1cc([N+](=O)[O-])ccc1F` ?
Out: 10.7 µM (active)

In: I'd like to know its AC50. The compound in question is `Cc1ccc(-c2nc(C(=O)NCCCN(C)C)cc3c2[nH]c2ccccc23)cc1`
Out: 11.2 µM (active)

In: Return reported AC50; argument: `COc1ccc(-n2c(C)cc(C(=O)CCl)c2C)cc1`
Out: 6.44 µM (active)

In: Which AC50 value belongs to `C=CCn1c(C)cc(C(=O)Cn2ncc(Cl)c(Cl)c2=O)c1C` ?
Out: 9.97 µM (active)

----------
Molecular target: Rac GTPase-activating protein 1 (Homo sapiens, UniProt Q9H0H5)
Sequence (Q9H0H5 whole entry): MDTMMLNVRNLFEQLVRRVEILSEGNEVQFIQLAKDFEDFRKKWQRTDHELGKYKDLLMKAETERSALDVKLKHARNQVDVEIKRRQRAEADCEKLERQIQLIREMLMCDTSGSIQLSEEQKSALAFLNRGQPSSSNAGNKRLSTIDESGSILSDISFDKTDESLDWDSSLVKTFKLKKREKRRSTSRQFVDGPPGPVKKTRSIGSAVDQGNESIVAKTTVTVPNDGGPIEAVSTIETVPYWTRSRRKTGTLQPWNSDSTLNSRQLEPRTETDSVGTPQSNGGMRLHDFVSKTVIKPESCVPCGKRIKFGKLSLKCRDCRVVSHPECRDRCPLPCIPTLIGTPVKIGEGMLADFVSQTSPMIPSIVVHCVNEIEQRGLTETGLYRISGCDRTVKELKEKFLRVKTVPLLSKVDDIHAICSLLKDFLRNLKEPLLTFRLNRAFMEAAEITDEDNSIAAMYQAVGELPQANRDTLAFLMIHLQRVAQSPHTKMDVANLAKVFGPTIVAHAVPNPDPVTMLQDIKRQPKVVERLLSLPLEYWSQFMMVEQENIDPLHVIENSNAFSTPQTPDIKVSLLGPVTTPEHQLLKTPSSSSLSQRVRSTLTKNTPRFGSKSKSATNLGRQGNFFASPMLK
Test: blockers of MgcRacGAP-driven Rac1 GTP hydrolysis – biochemical, ADP Hunter fluorescence, primary and confirmatory, confirmation (AID 624330)
Type: functional
The source made the active and inactive calls.
endpoint: IC50

In: GET /values?readout=IC50&item= `COC(=O)c1ccc(NC(=S)Nc2ccc(O)cc2)cc1`
Out: 43.1 µM (active)

In: Param item = `O=C1NC(=S)N(c2ccccc2)C(=O)/C1=C/c1ccco1` ; retrieve measured IC50.
Out: 8.35 µM (active)

In: Quick check: IC50 of `CCN(CC)CCOC(=O)c1ccc(N/C=C(/C#N)c2nc(-c3ccc(OC)c(OC)c3)cs2)cc1` ?
Out: 32.4 µM (active)

In: # lookup: IC50 of `Cc1ccccc1-c1ccc(Nc2ccc(N3CCOCC3)cc2)nn1`
Out: 79.6 µM (active)

In: Can you look up the measured IC50 of `O=C(COC(=O)c1ccccc1)Nc1ncc([N+](=O)[O-])s1` for me?
Out: 50.2 µM (active)

In: What measured IC50 goes with `COc1ccc(C(=O)N2CCN(C3CCN(Cc4ccccc4)CC3)CC2)cc1OC` ?
Out: 93.1 µM (active)

In: Need IC50, item `Nc1ccc2[nH]c(-c3cccnc3)nc2c1`
Out: 155 µM (active)

In: Given `O=C1/C(=C\c2ccc(O)c(O)c2)N=C2CCCCCN12` , state its recorded IC50.
Out: 17.4 µM (active)

In: # query: IC50 of entry `COc1ccc(CN2CCN(Cc3ccccc3F)CC2)cc1OC`
Out: 85.5 µM (active)

In: Need IC50, item `CCN1CCN(CCOc2cccc(Oc3ccccc3)c2)CC1`
Out: 106 µM (active)

In: Query: IC50; subject: `Nc1ccc(C(=O)c2ccc3c(c2)OCCO3)cc1N`
Out: 22.9 µM (active)

In: Which value of IC50 has been reported for `COc1cc(/C=N/N2CCN(c3ccccc3OC)CC2)ccc1O` in the records?
Out: 36.7 µM (active)

In: Look up IC50 for this compound: `Cc1ccc(OC(S)=Nc2ccc(O)cc2)cc1`
Out: 31.6 µM (active)

In: # get_value(readout='IC50', item= `c1ccc(Nc2cc(Nc3ccccc3)[nH]n2)cc1` )
Out: 50.9 µM (active)

In: Please report the recorded IC50 for `O=C(O)c1ccc(-c2ccc(/C=c3/sc4nc5ccccc5n4c3=O)o2)cc1Cl` .
Out: 48.4 µM (active)

In: IC50 lookup needed for O=C(O)C1Nc2c(O)cc(Cl)c([N+](=O)[O-])c2C2C=CCC12 (stereo unspecified) , thanks.
Out: 27.9 µM (active)

In: # query: IC50 of entry `CCN(CC)c1ccc(/C=N/N2CCOCC2)c(O)c1`
Out: 75.6 µM (active)

In: Item `COc1ccc(OC(=O)COc2cccc(C)c2)cc1` has what recorded IC50?
Out: 52.9 µM (active)

In: What value of IC50 has been reported for the following compound? `Cc1nc2ccc(-c3nc4cc(N)ccc4[nH]3)cc2[nH]1`
Out: 54 µM (active)

In: GET /values?readout=IC50&item= `CCn1c(C)nc2cc(C(=O)N/N=C/c3ccc(OC)c(O)c3)ccc21`
Out: 80 µM (active)

In: So what's the measured IC50 for this one? `Cc1nonc1C(=O)N/N=C/c1ccc(O)c(O)c1`
Out: 18.6 µM (active)

----------
Target: UniProt P09923
Sequence (P09923 whole entry): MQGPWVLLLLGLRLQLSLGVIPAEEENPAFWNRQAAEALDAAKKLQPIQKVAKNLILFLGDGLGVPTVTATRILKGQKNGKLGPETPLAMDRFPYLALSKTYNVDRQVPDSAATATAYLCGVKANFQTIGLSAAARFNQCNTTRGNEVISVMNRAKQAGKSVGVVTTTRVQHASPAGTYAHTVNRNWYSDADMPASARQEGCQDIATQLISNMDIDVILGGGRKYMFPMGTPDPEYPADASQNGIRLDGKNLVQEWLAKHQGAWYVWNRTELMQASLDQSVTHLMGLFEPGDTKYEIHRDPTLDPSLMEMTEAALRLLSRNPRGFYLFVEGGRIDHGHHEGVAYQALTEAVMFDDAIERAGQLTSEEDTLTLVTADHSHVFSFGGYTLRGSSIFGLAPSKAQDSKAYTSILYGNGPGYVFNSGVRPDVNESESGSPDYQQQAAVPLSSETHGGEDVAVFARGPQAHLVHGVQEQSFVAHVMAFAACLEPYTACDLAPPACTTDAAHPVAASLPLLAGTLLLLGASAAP
Experiment: inhibition of human intestinal alkaline phosphatase – biochemical, dose response (AID 488876)
Format: functional
Activity calls are given as the source filed them.
Form entry, call: pick from YES = active, NO = inactive

In: I would be grateful if you could indicate the recorded call for `O=C(COC(=O)c1ccccc1)Nc1ncc([N+](=O)[O-])s1` .
Out: YES

In: So what was the verdict on `O=C1c2cccc(O)c2C(=O)c2c(O)cc(CO)cc21` in this test?
Out: NO

In: What did this assay record as the result for `C=CCn1cc(CN2CCC(C(=O)Nc3cccc(-c4cccc(Cl)c4)c3)CC2)c(C)n1` ?
Out: YES

In: Identify the outcome logged in this assay for the molecule shown: `Cc1nonc1C(=O)N/N=C/c1ccc(O)c(O)c1`
Out: YES
